- Tested on: Adult Bovine Aortic Endothelial (ABAE) cell line
- ASSAY_INFO: Antiproliferative activity in ABAE cell line, PROTOCOL 1
- Type: cell-based
- RUN_CONDITIONS: Bos taurus, PROTOCOL 1, 48 hours
Structures can show the parent of a compound that is named as a salt.
Decide using IC50 alone. Strictly below 2 mg/L: met. Equal to or above 2 mg/L: not met.

COMPOUND	ASSIGNED_CLASS
CN(C)c1c(Cl)cc(O)c2c1CC1CC3[C@H](N(C)C)C(O)=C(C(N)=O)C(=O)[C@@]3(O)C(O)=C1C2=O (stereo partly drawn)	not met
CN(C)CC(=O)Nc1c(Cl)cc2c(c1O)C(=O)C1=C(O)[C@]3(O)C(=O)C(C(N)=O)=C(O)[C@@H](N(C)C)C3CC1C2 (stereo partly drawn)	not met
CNCC(=O)Nc1c(Cl)cc2c(c1O)C(=O)C1=C(O)[C@]3(O)C(=O)C(C(N)=O)=C(O)[C@@H](N(C)C)C3CC1C2 (stereo partly drawn) [Example 7, dihydrochloride]	not met
CCCCNCC(=O)Nc1c(Cl)cc2c(c1O)C(=O)C1=C(O)[C@]3(O)C(=O)C(C(N)=O)=C(O)[C@@H](N(C)C)C3CC1C2 (stereo partly drawn) [Example 4, dihydrochloride]	not met
CCCCCNCC(=O)Nc1c(Cl)cc2c(c1O)C(=O)C1=C(O)[C@]3(O)C(=O)C(C(N)=O)=C(O)[C@@H](N(C)C)C3CC1C2 (stereo partly drawn) [Example 6, dihydrochloride]	met
CN(C)[C@@H]1C(O)=C(C(N)=O)C(=O)[C@@]2(O)C(O)=C3C(=O)c4c(cc(Cl)c(NC(=O)CN5CCCC5)c4O)CC3CC12 (stereo partly drawn) [Example 9, dihydrochloride]	not met
CN(C)[C@@H]1C(O)=C(C(N)=O)C(=O)[C@@]2(O)C(O)=C3C(=O)c4c(cc(Cl)c(NC(=O)CN5CCCCC5)c4O)CC3CC12 (stereo partly drawn) [Example 10, dihydrochloride]	met

###

- Tested on: A2780/DDP
- ASSAY_INFO: Antiproliferative activity in human tumor cell lines: A2780/DDP (ovarian)
- Type: cell-based
- RUN_CONDITIONS: PROTOCOL 1 and PROTOCOL 2, 48 hours
Structures can show the parent of a compound that is named as a salt.
// reported IC50 for each item listed
EXPERIMENTAL_ENDPOINT: IC50

MOLECULE	EXPERIMENTAL_ENDPOINT	VAL
CC(C(=O)Nc1c(Cl)cc2c(c1O)C(=O)C1=C(O)[C@]3(O)C(=O)C(C(N)=O)=C(O)[C@@H](N(C)C)C3CC1C2)N1CCCC1 (stereo partly shown) [Example 13, dihydrochloride]	IC50	1 µg/mL
CN(C)CC(=O)Nc1c(Cl)cc2c(c1O)C(=O)C1=C(O)[C@]3(O)C(=O)C(C(N)=O)=C(O)[C@@H](N(C)C)C3CC1C2 (stereo partly shown)	IC50	2.5 µg/mL
CNCC(=O)Nc1c(Cl)cc2c(c1O)C(=O)C1=C(O)[C@]3(O)C(=O)C(C(N)=O)=C(O)[C@@H](N(C)C)C3CC1C2 (stereo partly shown) [Example 7, dihydrochloride]	IC50	3.8 µg/mL
CN(C)[C@@H]1C(O)=C(C(N)=O)C(=O)[C@@]2(O)C(O)=C3C(=O)c4c(cc(Cl)c(NC(=O)CN5CCCCC5)c4O)CC3CC12 (stereo partly shown) [Example 10, dihydrochloride]	IC50	0.6 µg/mL
CCC(C(=O)Nc1c(Cl)cc2c(c1O)C(=O)C1=C(O)[C@]3(O)C(=O)C(C(N)=O)=C(O)[C@@H](N(C)C)C3CC1C2)N(C)C (stereo partly shown) [Example 18, dihydrochloride]	IC50	3 µg/mL
CCCCNCC(=O)Nc1c(Cl)cc2c(c1O)C(=O)C1=C(O)[C@]3(O)C(=O)C(C(N)=O)=C(O)[C@@H](N(C)C)C3CC1C2 (stereo partly shown) [Example 4, dihydrochloride]	IC50	2.8 µg/mL
CN(C)[C@@H]1C(O)=C(C(N)=O)C(=O)[C@@]2(O)C(O)=C3C(=O)c4c(cc(Cl)c(NC(=O)CNCC5CC5)c4O)CC3CC12 (stereo partly shown) [Example 8, dihydrochloride]	IC50	2.5 µg/mL
CN(C)[C@@H]1C(O)=C(C(N)=O)C(=O)[C@@]2(O)C(O)=C3C(=O)c4c(cc(Cl)c(NC(=O)CN5CCCC5)c4O)CC3CC12 (stereo partly shown) [Example 9, dihydrochloride]	IC50	1 µg/mL
CCCCCNCC(=O)Nc1c(Cl)cc2c(c1O)C(=O)C1=C(O)[C@]3(O)C(=O)C(C(N)=O)=C(O)[C@@H](N(C)C)C3CC1C2 (stereo partly shown) [Example 6, dihydrochloride]	IC50	0.7 µg/mL
CN(C)c1c(Cl)cc(O)c2c1CC1CC3[C@H](N(C)C)C(O)=C(C(N)=O)C(=O)[C@@]3(O)C(O)=C1C2=O (stereo partly shown)	IC50	3.85 µg/mL
CCCNCC(=O)Nc1c(Cl)cc2c(c1O)C(=O)C1=C(O)[C@]3(O)C(=O)C(C(N)=O)=C(O)[C@@H](N(C)C)C3CC1C2 (stereo partly shown) [Example 5, dihydrochloride]	IC50	3 µg/mL
CC(C(=O)Nc1c(Cl)cc2c(c1O)C(=O)C1=C(O)[C@]3(O)C(=O)C(C(N)=O)=C(O)[C@@H](N(C)C)C3CC1C2)N1CCCCC1 (stereo partly shown) [Example 14, dihydrochloride]	IC50	< 0.16 µg/mL
CCC(C(=O)Nc1c(Cl)cc2c(c1O)C(=O)C1=C(O)[C@]3(O)C(=O)C(C(N)=O)=C(O)[C@@H](N(C)C)C3CC1C2)N1CCCC1 (stereo partly shown) [Example 19, dihydrochloride]	IC50	1 µg/mL
